Quick list: IC50 per entry.
- Assayed target: His6-TEV-PDGFRβ (557-1016) (Homo sapiens (Human), UniProt P09619)
- Sequence (P09619 557-1016): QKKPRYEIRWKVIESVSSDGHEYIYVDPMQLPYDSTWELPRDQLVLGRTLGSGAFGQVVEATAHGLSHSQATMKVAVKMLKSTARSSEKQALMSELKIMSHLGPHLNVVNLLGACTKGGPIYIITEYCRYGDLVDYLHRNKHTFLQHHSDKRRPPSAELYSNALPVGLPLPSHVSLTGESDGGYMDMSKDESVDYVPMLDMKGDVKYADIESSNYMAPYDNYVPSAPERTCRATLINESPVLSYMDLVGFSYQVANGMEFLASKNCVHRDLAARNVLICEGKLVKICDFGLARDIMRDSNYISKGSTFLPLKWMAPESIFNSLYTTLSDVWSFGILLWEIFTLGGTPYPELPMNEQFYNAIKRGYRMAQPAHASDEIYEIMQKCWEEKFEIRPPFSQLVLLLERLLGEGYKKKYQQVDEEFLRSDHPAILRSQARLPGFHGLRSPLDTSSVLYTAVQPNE
- Measurement description: PDGFRβ HTRF Assay
- Format: biochemical
- Measurement context: read-out: PDGFR HTRF IC50
Value type: IC50 (nM)

> print(dat)
                                   compound  recorded.value
1  Cc1ncc(NC(=O)CCN2CCCC2(C)C)cc1NC(=O)c1cnn2cc(-c3ccnn3C)sc12 [Example 11]             0.5
2  CC(=O)Nc1cc(-c2cn3ncc(C(=O)Nc4cc(NC(=O)CN5CC(C)(C)C5)cnc4C)c3s2)ccn1 [Example 273]             0.2
3  Cc1ncc(NC(=O)CN2CCCC(F)(F)C2)cc1NC(=O)c1cnn2cc(-c3cnn(C)c3)sc12 [Example 49]             0.4
4  Cc1ncc(C(=O)NCCN2CCC23CCC3)cc1NC(=O)c1cnn2cc(-c3cnn(C)c3C)sc12 [Example 169]             0.3

----------
His6-TEV-PDGFRβ (557-1016) (Homo sapiens (Human), UniProt P09619): recorded log10 of IC50 for assorted compounds
Value type: log10 of IC50 (log10 of the value in nM)

> print(dat)
                                    compound     value.type  recorded.value
 1  COCC1CCCN1CC(=O)Nc1cnc(C)c(NC(=O)c2cnn3cc(-c4cnn(C)c4)sc23)c1 (stereo not drawn) [Example 79]  log10 of IC50           -0.10
 2  COc1ncccc1-c1cn2ncc(C(=O)Nc3cc(NC(=O)CN4CC5(CCOCC5)C4)cnc3C)c2s1 [Example 403]  log10 of IC50           -0.70
 3  Cc1ncc(NC(=O)CN2CCOC(C)(C)C2)cc1NC(=O)c1cnn2cc(-c3cnn(C)c3)sc12 [Example 67]  log10 of IC50            0.00
 4  Cc1ncc(C(=O)NCCN2CCCC2(C)C)cc1NC(=O)c1cnn2cc(-c3ccc(=O)[nH]c3)sc12 [Example 137]  log10 of IC50            0.34
 5  Cc1ncc(NC(=O)CN2Cc3cccnc3C2)cc1NC(=O)c1cnn2cc(-c3cnn(C)c3)sc12 [Example 48]  log10 of IC50            0.15
 6  Cc1ncc(NC(=O)CN2CCCC23CCC3)cc1NC(=O)c1cnn2cc(-c3cnc4n3CCOC4)sc12 [Example 418]  log10 of IC50           -0.30
 7  COc1ncccc1-c1cn2ncc(C(=O)Nc3cc(NC(=O)OCCN4CCCC4(C)C)cnc3C)c2s1 [Example 254]  log10 of IC50           -0.70
 8  Cc1ncc(NC(=O)CN2CCCC2)cc1NC(=O)c1cnn2cc(-c3cccnc3O)sc12 [Example 312]  log10 of IC50            0.26
 9  Cc1ncc(NC(=O)CN2CCCC[C@@H]2C)cc1NC(=O)c1cnn2cc(-c3cnn(CCO)c3)sc12 [Example 34]  log10 of IC50            0.23
10  COc1ncccc1-c1cn2ncc(C(=O)Nc3cc(NC(=O)CN4C[C@@H](CO)OC(C)(C)C4)cnc3C)c2s1 [Example 380]  log10 of IC50           -0.40
11  Cc1ncc(C(=O)NCCN2CC(F)(F)C2)cc1NC(=O)c1cnn2cc(-c3ccncc3)sc12 [Example 152]  log10 of IC50           -0.40
12  Cc1ncc(NC(=O)CN2CC3(CCOCC3)C2)cc1NC(=O)c1cnn2cc(-c3cnn4c3OCCC4)sc12 [Example 406]  log10 of IC50           -0.40
13  COCCn1cc(-c2cn3ncc(C(=O)Nc4cc(NC(=O)CCN5CC6CCC5CC6)cnc4C)c3s2)cn1 [Example 100]  log10 of IC50           -0.30
14  Cc1ncc(NC(=O)CN2CCCC2(C)C)cc1NC(=O)c1cnn2cc(-c3cnn(C(C)(C)CO)c3)sc12 [Example 457]  log10 of IC50           -0.40
15  Cc1ncc(C(=O)NCCN2CCCC23COC3)cc1NC(=O)c1cnn2cc(-c3c(C)nn(C)c3C)sc12 [Example 179]  log10 of IC50            0.00

Source listed as patent US20240109917A1.
